# Method: Inhibition of HIV recombinant integrase strand transfer activity expressed in Escherichia coli after 60 mins using [32P]-labeled oligonucleotide substrate by densitometric analysis
# Parameters: species or system Human immunodeficiency virus
Metric: pIC50
Note on pIC50: it is the negative log10 of concentration, concentration in mol/L.

Cc1cn(COCc2ccccc2)c(=O)n(O)c1=O	4.12

[in] Item `CCc1c(Cc2ccccc2)c(=O)n(O)c(=O)n1COCc1ccccc1` has what recorded pIC50?
[out] 4.44

[in] Item `CC(C)c1c(Cc2ccccc2)n(COCc2cccc(Cl)c2F)c(=O)n(O)c1=O` has what recorded pIC50?
[out] 5.64

[in] Item `CCc1c(Cc2ccccc2)n(COCc2ccccc2)c(=O)n(O)c1=O` has what recorded pIC50?
[out] 5.09

[in] Item `CC(C)c1c(Cc2ccccc2)n(CCCc2ccc(F)cc2)c(=O)n(O)c1=O` has what recorded pIC50?
[out] 6.36

[in] Item `CC(C)c1c(Cc2ccccc2)n(COCCCCc2ccc(F)cc2)c(=O)n(O)c1=O` has what recorded pIC50?
[out] 5.35

[in] Item `CC(C)c1c(Cc2ccccc2)n(CCc2ccc(F)cc2)c(=O)n(O)c1=O` has what recorded pIC50?
[out] 4.34

Where these numbers come from: ChEMBL document CHEMBL1765044
